- Method notes: Plasma concentrations of DEX and unconjugated DOR (HPLC), model-independent pharmacokinetics
- Type: in vivo, human
- Condition context: both sexes, human, plasma, oral, median; plasma; the administered compound itself; read-out: AUC0‐24 h, median
Property measured: AUC (ng·h/mL)

[
  {
    "Smiles repr": "CN1CC[C@@]23CCCC[C@@H]2[C@@H]1Cc1ccc(O)cc13",
    "Property measured": "AUC",
    "Recorded value": 18.9
  },
  {
    "Smiles repr": "COc1ccc2c(c1)[C@]13CCCC[C@@H]1[C@H](C2)N(C)CC3",
    "Property measured": "AUC",
    "Recorded value": 16.7
  }
]

----------
- Method notes: Plasma concentrations of DEX and unconjugated DOR (HPLC), model-independent pharmacokinetics
- Assay type: in vivo, human
- Condition context: both sexes, human, plasma, oral, mean; plasma; the administered compound itself (40.5 mg DEX HBr or 44.6 mg DOR-D-tartrate); unconjugated DOR; read-out: Cmax, mean
Property measured: Cmax (ng/mL)

[
  {
    "Compound": "CN1CC[C@@]23CCCC[C@@H]2[C@@H]1Cc1ccc(O)cc13 [DOR, dextrorphan]",
    "Recorded value": 4.1
  },
  {
    "Compound": "COc1ccc2c(c1)[C@]13CCCC[C@@H]1[C@H](C2)N(C)CC3 [DEX, dextromethorphan]",
    "Recorded value": 3.5
  }
]

----------
- Method notes: Plasma concentrations of DEX and unconjugated DOR (HPLC), model-independent pharmacokinetics
- Format: in vivo, human
- Condition context: both sexes, human, plasma, oral, mean; plasma; the administered compound itself (40.5 mg DEX HBr or 44.6 mg DOR-D-tartrate); unconjugated DOR; read-out: AUC0‐24 h, mean
- Description: The clinical trial has been performed according to the Declaration of Helsinki and was approved by the North Sheffield Research and Ethics Committee (approval number NS98/183). […] Plasma concentrations of DEX and unconjugated DOR were determined using high‐performance liquid chromatography with fluorometric detection according to the method of Chen et al.[25] […] The lower limits of quantification were determined to be 0.3 ng/mL for DOR and 0.5 ng/mL for DEX. […]

[
  {
    "Smiles repr": "CN1CC[C@@]23CCCC[C@@H]2[C@@H]1Cc1ccc(O)cc13",
    "AUC": "17.4 ng·h/mL"
  },
  {
    "Smiles repr": "COc1ccc2c(c1)[C@]13CCCC[C@@H]1[C@H](C2)N(C)CC3",
    "AUC": "26.7 ng·h/mL"
  }
]

----------
- Method notes: Population pharmacokinetic model (joint parent drug-metabolite model; two-compartment model for DOR given on its own)
- Format: in vivo, human
- Condition context: both sexes, human, plasma, oral; population estimate; read-out: k(DEX), elimination rate constant for dextromethorphan by other pathways (converted)
- Procedure: Pharmacokinetic/pharmacodynamic analysis (PKPD) of DEX and DOR was conducted using non‐linear mixed effects modelling with Monolix software, 2024R1 (Lixoft SAS, Antony, France). The analysis followed a sequential approach, where the PK parameters of both compounds were estimated initially, and then these were used alongside the cough data to build the PK/PD model. The model components are described below: A joint parent drug‐metabolite model[26] […]

[
  {
    "Smiles repr": "COc1ccc2c(c1)[C@]13CCCC[C@@H]1[C@H](C2)N(C)CC3",
    "k el, s⁻¹": "2.78e-05"
  }
]

----------
Below: a set of entries, each annotated with reported Tmax.
- Method notes: Plasma concentrations of DEX and unconjugated DOR (HPLC), model-independent pharmacokinetics
- Format: in vivo, human
- Condition context: both sexes, human, plasma, oral, median; plasma; the administered compound itself; read-out: Tmax, median
- Description: The clinical trial has been performed according to the Declaration of Helsinki and was approved by the North Sheffield Research and Ethics Committee (approval number NS98/183). […] Plasma concentrations of DEX and unconjugated DOR were determined using high‐performance liquid chromatography with fluorometric detection according to the method of Chen et al.[25] […] The lower limits of quantification were determined to be 0.3 ng/mL for DOR and 0.5 ng/mL for DEX. […]

[
  {
    "Smiles repr": "CN1CC[C@@]23CCCC[C@@H]2[C@@H]1Cc1ccc(O)cc13",
    "Readout units": "h",
    "Tmax": 1
  },
  {
    "Smiles repr": "COc1ccc2c(c1)[C@]13CCCC[C@@H]1[C@H](C2)N(C)CC3",
    "Readout units": "h",
    "Tmax": 1
  }
]

----------
- Method notes: Population pharmacokinetic model (joint parent drug-metabolite model; two-compartment model for DOR given on its own)
- Type: in vivo, human
- Condition context: both sexes, human, plasma, oral; population estimate; after administration of DEX; taken as equal for DEX and DOR; read-out: V/F, volume of distribution
// reported Vd/F for each item listed

[
  {
    "Compound": "CN1CC[C@@]23CCCC[C@@H]2[C@@H]1Cc1ccc(O)cc13 [DOR, dextrorphan]",
    "Vd/F, L": 4870
  },
  {
    "Compound": "COc1ccc2c(c1)[C@]13CCCC[C@@H]1[C@H](C2)N(C)CC3 [DEX, dextromethorphan]",
    "Vd/F, L": 4870
  }
]

----------
molecules and their reported Tmax
- Method notes: Plasma concentrations of DEX and unconjugated DOR (HPLC), model-independent pharmacokinetics
- Format: in vivo, human
- Condition context: both sexes, human, plasma, oral, mean; plasma; the administered compound itself (40.5 mg DEX HBr or 44.6 mg DOR-D-tartrate); unconjugated DOR; read-out: Tmax, mean

[
  {
    "Molecule": "COc1ccc2c(c1)[C@]13CCCC[C@@H]1[C@H](C2)N(C)CC3 [DEX, dextromethorphan]",
    "Readout units": "h",
    "Tmax": 1.8
  },
  {
    "Molecule": "CN1CC[C@@]23CCCC[C@@H]2[C@@H]1Cc1ccc(O)cc13 [DOR, dextrorphan]",
    "Readout units": "h",
    "Tmax": 1.1
  }
]

----------
- Method notes: Plasma concentrations of DEX and unconjugated DOR (HPLC), model-independent pharmacokinetics
- Type: in vivo, human
- Condition context: both sexes, human, plasma, oral, median; plasma; the administered compound itself; read-out: Cmax, median
Property measured: Cmax

[
  {
    "Smiles repr": "CN1CC[C@@]23CCCC[C@@H]2[C@@H]1Cc1ccc(O)cc13",
    "Property measured": "Cmax",
    "Recorded value": "3.8 ng/mL"
  }
]
